METHOD_NOTES: Solid-state stability test, one week, HPLC purity
Format: physicochemical
CONDITION_INFO: 40° C./75% RH, open container, 1 week
Assign HPLC purity 1 week to each entry below.
Answers are plain numbers, in Area %.

Past entries and their recorded results:
CC1=Nc2c(F)cc(-c3nc(Nc4ccc(C5CCN(C)CC5)cn4)ncc3F)cc2C12CCCC2 [Adipate crystal form A] : 99.89
CC1=Nc2c(F)cc(-c3nc(Nc4ccc(C5CCN(C)CC5)cn4)ncc3F)cc2C12CCCC2.O=C(O)/C=C\C(=O)O [Maleate crystal form B] : 99.89
CC1=Nc2c(F)cc(-c3nc(Nc4ccc(C5CCN(C)CC5)cn4)ncc3F)cc2C12CCCC2.CS(=O)(=O)O [Methanesulfonate crystal form A, reference compound] : 99.16
CC1=Nc2c(F)cc(-c3nc(Nc4ccc(C5CCN(C)CC5)cn4)ncc3F)cc2C12CCCC2.O=C(O)/C=C/C(=O)O [Fumarate crystal form A] : 99.88
CC1=Nc2c(F)cc(-c3nc(Nc4ccc(C5CCN(C)CC5)cn4)ncc3F)cc2C12CCCC2.O=C(O)CCC(=O)O [Succinate crystal form A] : 99.90
CC1=Nc2c(F)cc(-c3nc(Nc4ccc(C5CCN(C)CC5)cn4)ncc3F)cc2C12CCCC2 [Free base crystal form A, reference compound] : 99.92

Read the next record carefully.
input: Recorded HPLC purity 1 week of CC1=Nc2c(F)cc(-c3nc(Nc4ccc(C5CCN(C)CC5)cn4)ncc3F)cc2C12CCCC2.O=C(O)/C=C/C(=O)O [Fumarate crystal form C] , please.
output: 99.48

---

METHOD_NOTES: Solid-state stability test, one week, HPLC purity
Type: physicochemical
CONDITION_INFO: 25° C./60% RH, open container, 1 week
Assign HPLC purity 1 week to each entry below.
Give bare numbers, in Area %.

CC1=Nc2c(F)cc(-c3nc(Nc4ccc(C5CCN(C)CC5)cn4)ncc3F)cc2C12CCCC2.O=C(O)/C=C\C(=O)O [Maleate crystal form B] : 99.88
CC1=Nc2c(F)cc(-c3nc(Nc4ccc(C5CCN(C)CC5)cn4)ncc3F)cc2C12CCCC2.O=C(O)/C=C/C(=O)O [Fumarate crystal form A] : 99.89
CC1=Nc2c(F)cc(-c3nc(Nc4ccc(C5CCN(C)CC5)cn4)ncc3F)cc2C12CCCC2 [Adipate crystal form A] : 99.88
CC1=Nc2c(F)cc(-c3nc(Nc4ccc(C5CCN(C)CC5)cn4)ncc3F)cc2C12CCCC2 [Free base crystal form A, reference compound] : 100.0

Okay, here is my list. What is HPLC purity 1 week for each of these?
1. CC1=Nc2c(F)cc(-c3nc(Nc4ccc(C5CCN(C)CC5)cn4)ncc3F)cc2C12CCCC2.CS(=O)(=O)O [Methanesulfonate crystal form A, reference compound]
2. CC1=Nc2c(F)cc(-c3nc(Nc4ccc(C5CCN(C)CC5)cn4)ncc3F)cc2C12CCCC2.O=C(O)CCC(=O)O [Succinate crystal form A]
3. CC1=Nc2c(F)cc(-c3nc(Nc4ccc(C5CCN(C)CC5)cn4)ncc3F)cc2C12CCCC2.O=C(O)/C=C/C(=O)O [Fumarate crystal form C]

output:
1. 99.73
2. 99.90
3. 99.48

---

METHOD_NOTES: Solubility test in water, FaSSIF and FeSSIF (24 h, 37° C., HPLC concentration)
Format: physicochemical
CONDITION_INFO: water, 37 °C, water, thermodynamic from solid, water, initial feeding amount 10 mg/ml, read-out: Solubility in water
Method: Experimental method: the solubility test was carried out in three solvents including water, fasted state simulated intestinal fluid (FaSSIF) and fed state simulated intestinal fluid (FeSSIF), to evaluate the solubilities of the salts of the present invention. […]
ATTRIBUTE_MEASURED: solubility at 24 h (mg/mL)
Numbers only, in mg/mL.

CC1=Nc2c(F)cc(-c3nc(Nc4ccc(C5CCN(C)CC5)cn4)ncc3F)cc2C12CCCC2.O=C(O)/C=C\C(=O)O [Maleate crystal form B] : 12.9

Read the next record carefully.
input: Recorded solubility at 24 h of CC1=Nc2c(F)cc(-c3nc(Nc4ccc(C5CCN(C)CC5)cn4)ncc3F)cc2C12CCCC2.O=C(O)CCC(=O)O [Succinate crystal form A] , please.
output: 7.5

---

METHOD_NOTES: Solubility test in water, FaSSIF and FeSSIF (24 h, 37° C., HPLC concentration)
Type: physicochemical
CONDITION_INFO: FeSSIF, 37 °C, fessif, thermodynamic from solid, fed state simulated intestinal fluid, initial feeding amount 10 mg/ml, read-out: Solubility in FeSSIF
ATTRIBUTE_MEASURED: solubility at 24 h (µg/mL)
Answers are plain numbers, in µg/mL.

Past entries and their recorded results:
CC1=Nc2c(F)cc(-c3nc(Nc4ccc(C5CCN(C)CC5)cn4)ncc3F)cc2C12CCCC2.O=C(O)/C=C/C(=O)O [Fumarate crystal form A] : 8000
CC1=Nc2c(F)cc(-c3nc(Nc4ccc(C5CCN(C)CC5)cn4)ncc3F)cc2C12CCCC2.O=C(O)/C=C\C(=O)O [Maleate crystal form B] : 7800
CC1=Nc2c(F)cc(-c3nc(Nc4ccc(C5CCN(C)CC5)cn4)ncc3F)cc2C12CCCC2.O=C(O)CCC(=O)O [Succinate crystal form A] : 10700

Read the next record carefully.
input: Recorded solubility at 24 h of CC1=Nc2c(F)cc(-c3nc(Nc4ccc(C5CCN(C)CC5)cn4)ncc3F)cc2C12CCCC2 [Free base crystal form A, reference compound] , please.
output: 10200

---

METHOD_NOTES: Solubility test in water, FaSSIF and FeSSIF (24 h, 37° C., HPLC concentration)
Format: physicochemical
CONDITION_INFO: water, initial feeding amount 10 mg/ml
Assign Solubility in water to each entry below.
Give bare numbers, in mg/mL.

Past entries and their recorded results:
CC1=Nc2c(F)cc(-c3nc(Nc4ccc(C5CCN(C)CC5)cn4)ncc3F)cc2C12CCCC2 [Free base crystal form A, reference compound] : 0.075
CC1=Nc2c(F)cc(-c3nc(Nc4ccc(C5CCN(C)CC5)cn4)ncc3F)cc2C12CCCC2.O=C(O)/C=C/C(=O)O [Fumarate crystal form A] : 6.3
CC1=Nc2c(F)cc(-c3nc(Nc4ccc(C5CCN(C)CC5)cn4)ncc3F)cc2C12CCCC2.O=C(O)/C=C/C(=O)O [Fumarate crystal form C] : 0.48

Read the next record carefully.
input: Recorded Solubility in water of CC1=Nc2c(F)cc(-c3nc(Nc4ccc(C5CCN(C)CC5)cn4)ncc3F)cc2C12CCCC2 [Adipate crystal form A] , please.
output: 6.5

---

METHOD_NOTES: Dynamic moisture adsorption (DVS) hygroscopicity test
Assay type: physicochemical
CONDITION_INFO: DVS, 25° C./80% RH
ATTRIBUTE_MEASURED: Hygroscopicity (moisture adsorption capacity)

Past entries and their recorded results:
CC1=Nc2c(F)cc(-c3nc(Nc4ccc(C5CCN(C)CC5)cn4)ncc3F)cc2C12CCCC2 [Adipate crystal form A] : 0.22%
CC1=Nc2c(F)cc(-c3nc(Nc4ccc(C5CCN(C)CC5)cn4)ncc3F)cc2C12CCCC2.O=C(O)CCC(=O)O [Succinate crystal form A] : 0.33%
CC1=Nc2c(F)cc(-c3nc(Nc4ccc(C5CCN(C)CC5)cn4)ncc3F)cc2C12CCCC2.O=C(O)/C=C/C(=O)O [Fumarate crystal form A] : 0.35%

Okay, here is my list. What is Hygroscopicity (moisture adsorption capacity) for each of these?
1. CC1=Nc2c(F)cc(-c3nc(Nc4ccc(C5CCN(C)CC5)cn4)ncc3F)cc2C12CCCC2.O=C(O)/C=C\C(=O)O [Maleate crystal form B]
2. CC1=Nc2c(F)cc(-c3nc(Nc4ccc(C5CCN(C)CC5)cn4)ncc3F)cc2C12CCCC2 [Free base crystal form A, reference compound]
3. CC1=Nc2c(F)cc(-c3nc(Nc4ccc(C5CCN(C)CC5)cn4)ncc3F)cc2C12CCCC2.Cl [Hydrochloride crystal form B, reference compound]
4. CC1=Nc2c(F)cc(-c3nc(Nc4ccc(C5CCN(C)CC5)cn4)ncc3F)cc2C12CCCC2.CS(=O)(=O)O [Methanesulfonate crystal form A, reference compound]

output:
2.00%
0.10%
9.12%
12.02%

---

METHOD_NOTES: Dynamic moisture adsorption (DVS) hygroscopicity test
Type: physicochemical
CONDITION_INFO: XRPD before and after DVS test
ATTRIBUTE_MEASURED: Whether the crystal form has a change

Past entries and their recorded results:
CC1=Nc2c(F)cc(-c3nc(Nc4ccc(C5CCN(C)CC5)cn4)ncc3F)cc2C12CCCC2.Cl [Hydrochloride crystal form B, reference compound] : Change
CC1=Nc2c(F)cc(-c3nc(Nc4ccc(C5CCN(C)CC5)cn4)ncc3F)cc2C12CCCC2 [Free base crystal form A, reference compound] : No change
CC1=Nc2c(F)cc(-c3nc(Nc4ccc(C5CCN(C)CC5)cn4)ncc3F)cc2C12CCCC2.O=C(O)CCC(=O)O [Succinate crystal form A] : No change
CC1=Nc2c(F)cc(-c3nc(Nc4ccc(C5CCN(C)CC5)cn4)ncc3F)cc2C12CCCC2.O=C(O)/C=C/C(=O)O [Fumarate crystal form A] : No change
CC1=Nc2c(F)cc(-c3nc(Nc4ccc(C5CCN(C)CC5)cn4)ncc3F)cc2C12CCCC2.CS(=O)(=O)O [Methanesulfonate crystal form A, reference compound] : Change

Okay, here is my list. What is Whether the crystal form has a change for each of these?
1. CC1=Nc2c(F)cc(-c3nc(Nc4ccc(C5CCN(C)CC5)cn4)ncc3F)cc2C12CCCC2 [Adipate crystal form A]
2. CC1=Nc2c(F)cc(-c3nc(Nc4ccc(C5CCN(C)CC5)cn4)ncc3F)cc2C12CCCC2.O=C(O)/C=C\C(=O)O [Maleate crystal form B]

output:
1: No change; 2: No change
